experiment: HT29 colon tumor cell growth inhibition, primary screen, imaging, high content imaging, 72 h, CellTiter-Glo (AID 772); settings: HCS imaging cell count, measured here: percent cells with condensed nuclei, at 10 µM, stronger effect = higher value;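 further: condensed means nuclear area below control median minus 1.5 SD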
The whole screen tested about 3,300 compounds, of which about 20 (0.6%) were called active. Shown is part of a subset that was picked to be rich in actives.
Field: condensed nuclei. Provide a value for each of the compounds that follow.
Give bare numbers, in %.

Take a look at these entries with their results.
Q: condensed nuclei lookup needed for COCCCNC(=O)C(C#N)c1nc2ccccc2nc1N1CCN(Cc2ccccc2)CC1 (centres undefined) , thanks.
Result: 4.88

Q: What would you report for `COn1c(SC2CCCCC2)nc2ccccc2c1=O` ?
Result: 12.3

Q: Another compound: COc1ccc(C2CC(=O)c3sc(N)nc3C2)cc1 (centres undefined)
Result: 1.99

Q: Next entry: Cc1ccc(N2C(=O)C3ON(c4ccccc4)C(c4ccncc4)C3C2=O)c(C)c1 (centres undefined)
Result: 8.14

Q: Consider next the compound CCOc1ccc2nc(NC(NC(C)=O)(C(=O)OC)C(F)(F)F)sc2c1 (centres undefined) in the same way.
Result: 3.93

For every record below, what is its condensed nuclei?
1. Clc1ccc2[nH]c3c(NCCCN4CCOCC4)ncnc3c2c1
2. CCN(CC)CC#CCOC(=O)C(O)(c1ccccc1)C1CCCCC1 (centres undefined)
3. CCOC(=O)CC(=O)CSc1nc2c(cc1C#N)CCCCCC2

Result:
1. 45.3
2. 18.4
3. 6.69

Respectfully, I request condensed nuclei for each entry included below.
1. CN(C)CC(O)COc1ccc(C(C)(C)c2ccc(OCC(O)CN(C)C)cc2)cc1 (centres undefined)
2. CCC(NC(=O)Nc1cc(OC)c(OC)c(OC)c1)(C(F)(F)F)C(F)(F)F
3. COc1ccccc1C(=O)N1CCCC1(C#N)c1ccccc1 (centres undefined)
4. COC(=O)C1C(=O)CC(C)(O)C(C(=O)OC)C1c1ccccc1F (centres undefined)
5. Cc1ccc(OCc2nnc(NC(=O)c3ccco3)s2)c(C)c1
6. CCOc1ccc(-c2nc(C#N)c(N3CCN(CC)CC3)o2)cc1
7. Clc1ccc(-n2ncc3c(NCc4ccco4)ncnc32)cc1
8. CN(C)CC(O)COc1cccc(OCC(O)CN(C)C)c1 (centres undefined)

Result:
1. 18.1
2. 2.2
3. 2.93
4. 2.72
5. 11.2
6. 5.03
7. 40
8. 5.18

Record condensed nuclei per entry; entries follow.
1. CN1CCCN=C1COC(=O)C(O)(c1ccccc1)C1CCCCC1 (centres undefined)
2. Cc1cccn2c(=O)c3cc(C#N)c(=N)n(Cc4ccncc4)c3nc12
3. N#CC1=C(C=Nc2ccccc2O)CCC1
4. Cc1cc(=O)oc(C)c1C(=O)NCCNC(=O)c1c(C)cc(=O)oc1C
5. Cn1c(SCC(=O)NCc2ccccc2)nc2ccccc21
6. Clc1ccc(-n2ncc3c(NCc4cccs4)ncnc32)cc1
7. O=C1c2ccccc2C(=O)C1c1ccc2ccccc2n1
8. CC1(C)Cc2c(sc3nc(SCC#N)n(C4CCCCC4)c(=O)c23)CO1

Result:
1: 2.98; 2: 5.14; 3: 1.93; 4: 2.08; 5: 4.29; 6: 2.28; 7: 4.03; 8: 3.8

###

assay: HT29 colon tumor cell growth inhibition, primary screen, imaging, high content imaging, 72 h, CellTiter-Glo (AID 772); settings: HCS imaging cell count, measured here: percent cells with condensed nuclei, at 10 µM, stronger effect = higher value;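 further: condensed means nuclear area below control median minus 1.5 SD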
The whole screen tested about 3,300 compounds, of which about 20 (0.6%) were called active. The entries come from a sample that favours actives as a whole.
QUANTITY MEASURED: condensed nuclei (%)
Numbers only, in %.

Example results:
Q: Report condensed nuclei for `Cn1cc(Br)cc2nc(C(F)(F)F)nc1-2` please.
Result: 22.8

Q: Ok, now COC(=O)C(NC(C)=O)(Nc1ccc(Br)cn1)C(F)(F)F (configuration not stated)
Result: 2.33

Q: Another compound to look at: `Cc1c(C(=O)O)sc(=S)n1-c1ccccc1`
Result: 3.47

Q: `O=C(O)c1nsc(Cl)c1Cl` ?
Result: 1.81

Quick request: condensed nuclei for each listed item, please.
1. CCOC(=O)c1ccc(N=Cc2nc(-c3ccccc3)oc2OC(C)=O)cc1
2. C=CCNc1nc(C2(C)CC3(CC(C)(C)OC3=O)C(=O)O2)cs1 (configuration not stated)
3. Cc1c(CCC#N)c(N2CCN(C3CCCCC3)CC2)n2c(nc3ccccc32)c1C#N
4. Cn1c(=O)c2c(nc(Br)n2Cc2ccc3ccccc3c2)n(C)c1=O
5. Cc1cc(C(=O)O)c(CSc2ncn[nH]2)o1
6. CCCCC(CCC(=O)Nc1ccc(C(=O)OC)cc1)C(=O)O (configuration not stated)
7. CC1CCN(c2oc(-c3ccccc3Cl)nc2C#N)CC1
8. Cc1cc(C)nc(N(C#N)CC(=O)N(c2ccccc2)C(C)C)n1

Result:
1: 12.1; 2: 1.83; 3: 10.6; 4: 5.08; 5: 6.05; 6: 1.33; 7: 4.72; 8: 7.69

This collection of values is drawn from PubChem BioAssay AID772.
